B1: library; numbered along this chain (parent)
chain: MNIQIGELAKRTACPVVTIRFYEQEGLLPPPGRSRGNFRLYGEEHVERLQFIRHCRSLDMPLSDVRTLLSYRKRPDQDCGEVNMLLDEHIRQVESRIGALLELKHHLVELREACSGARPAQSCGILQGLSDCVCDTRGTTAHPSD

Variants of: B1
Test: sfGFP reporter fluorescence (15 h) (µM FITC); higher = stronger transcriptional activation
Conditions: library round: Round 1; ligand: 30 µM Zn
Binning of sfGFP reporter fluorescence into classes: label 0 (below 0.2), label 1 (0.2 to below 0.5), label 2 (0.5 or more)

Below are worked cases with known answers.
>  <variant_label>
E109I R111L

>  <label_class>
label 1

$$$$
>  <variant_label>
D131T V133P

>  <label_class>
label 1

$$$$
>  <variant_label>
G32A D131C

>  <label_class>
label 0

$$$$
>  <variant_label>
D64K N83T

>  <label_class>
label 2

$$$$
>  <variant_label>
M84Q R111L

>  <label_class>
label 0

$$$$

Input: Could you tell me which band P61N D131Y belongs to?
Output: label 2

Input: Could you tell me which band V108E E109H belongs to?
Output: label 1

Input: Could you tell me which band N83T L85M belongs to?
Output: label 0
